Here the recorded Absorbance at 450 nM is given for each entry.
Target Entity: T1, CD11b A-domain CD11bA-D242A/F275S/F302G, construct BZ348014 (human, UniProt P11215 148-337)
T1 construct: the antigen on which the libraries were enriched; also called BZ348014 antigen
T1 chain: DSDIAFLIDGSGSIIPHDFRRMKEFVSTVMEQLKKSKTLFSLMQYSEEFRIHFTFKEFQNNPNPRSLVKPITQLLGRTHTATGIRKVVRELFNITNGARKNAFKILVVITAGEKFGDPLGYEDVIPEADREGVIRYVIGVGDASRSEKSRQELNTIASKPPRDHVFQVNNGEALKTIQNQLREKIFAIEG
Test Details: counterscreen phage ELISA on coated antigen
Answer with a bare number; do not write a unit.

>  <Binder>
Clone 14 149-014-14 (VK-Linker-VH) (scFv, From the naive human scFv phage display library) scFv: DVVMTQSPLSLPATLGQPASISCRSSQSLVYTDGNTYLNWFQQRPGQSPRRLIYKVSNRDSGVPDRFSGSGSGTHFTLKISRVEAEDVGVYYCMQGTHWPPTFGQGTKVEIKEGKSSGSGSESKASEVQLVQSGAEVKKPGASVKVSCKASGGTFSSYAISWVRQAPGQGLEWMGGIIPIFGTANYAQKFQGRVTITADESTSTAYMELSSLRSEDTAVYYCASSGVDYWGQGTLVTVSS

>  <Numeric Value>
1.06

$$$$

Query: Which value of Absorbance at 450 nM has been reported for Clone 5 149-014-5 (VL-Linker-VH) (scFv, From the naive human scFv phage display library) scFv: SSELTQDPAVSVALGQTVRITCQGDSLRSYYASWYQQKPGQAPVLVIYGKNNRPSGIPDRFSGSTSGNFASLTITGAQAEDGADYYCHSRDSSGNHLVFGGGTKLTVLGEGKSSGSGSESKASEVQLVQSGAEVKKPGESLKISCKGSGYSFTSYWIGWVRQMPGKGLEWMGIIYPGDSDTRYSPSFQGQVTISADKSISTAYLQWSSLKASDTAMYYCARRARGAFDIWGQGTLVTVSS in the records?
Result: 1.69

Query: Which value of Absorbance at 450 nM has been reported for Clone 13 149-014-13 VH only (other) VH: EVQLLESGGGLVQPGGSLRLSCAASGFTFSSDLMSWVRQAPGKGLEWVSAISGSGGSTYYADSVKGRFTISRDNSKNTLYLQMNSLRAEDTAVYYCAKNEVIFDYWGQGTLVTVSSASTKGLSMFDYWGQGTKVEIK in the records?
Result: 0.866

Query: Which value of Absorbance at 450 nM has been reported for Clone 6 149-014-6 (VL-linker-VH) (scFv, From the naive human scFv phage display library) scFv: QSVLTQPPSASGTPGQRVTISCSGSSSNIGSNYVSWYQQLPGTAPKLLIYDNNKRPSGIPDRFSGSKSGTSATLGITGLQTGDEADYYCGTWDSSLSALYVFGAGTKLTVLGEGKSSGSGSESKASQVQLQESGPGLVKPSETLSLTCSVSGGSTSSYYWSWIRQPPGKGLEWIGYISNSGSTNYNPSLKSRVTMSIDTSNNQFSLKLSSVTAADTAVYYCASHLGATWRWGQGTLVTVSS in the records?
Result: 1.25
